- MEASURED_TARGET: Alpha-galactosidase (Coffea arabica)
- RUN_DESCRIPTION: Inhibition of coffee beans alpha-galactosidase using p-nitrophenyl glycoside as substrate assessed as release of p-nitrophenol at 1000 uM measured by spectrometric assay relative to control
Classification field: enter YES for inhibition values not below 8%, NO for values below it.

IN: Could you verify whether the entry "CCC[C@@]1(CO)NC[C@H](O)[C@@H](O)[C@@H]1O.Cl" shows inhibition of no less than 8%?
OUT: YES

IN: Could you verify whether the entry "CCC[C@]1(CO)NC[C@H](O)[C@@H](O)[C@@H]1O.Cl" shows inhibition of no less than 8%?
OUT: YES

IN: Could you verify whether the entry OC[C@H]1NC[C@H](O)[C@@H](O)[C@@H]1O [DUVOGLUSTAT] shows inhibition of no less than 8%?
OUT: YES

IN: Could you verify whether the entry "CCCCCCCCCCCC[C@@]1(CO)NC[C@H](O)[C@@H](O)[C@@H]1O.Cl" shows inhibition of no less than 8%?
OUT: NO

IN: Could you verify whether the entry "CCCCCCCCCC[C@@]1(CO)NC[C@H](O)[C@@H](O)[C@@H]1O.Cl" shows inhibition of no less than 8%?
OUT: NO

IN: Could you verify whether the entry "CCCC[C@@]1(CO)NC[C@H](O)[C@@H](O)[C@@H]1O.Cl" shows inhibition of no less than 8%?
OUT: YES
